Cited source for all entries: the supplement of paper PMC10567573

B1: ZNF207 (parent)
chain: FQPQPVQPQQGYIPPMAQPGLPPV

variants of: B1; experiment: protein stability index of a GFP-peptide fusion (GPS, HEK-293T) (PSI 1-6); higher = more stable; details: c terminus: a fixed tail appended;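 also: lentivirally expressed fusions sorted by FACS into six bins by GFP to DsRed ratio, PSI derived from sequencing read proportions per bin multiplied by bin number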
Listing: protein stability index of selected variants
measured.property: protein stability index

record.sequence: FQPQPVQPQQGYIPLMAQPGLPPV
measured.value: 2.72
--
record.sequence: FQPQPVQPQQGYIPPMMQPGLPPV
measured.value: 3.4
--
record.sequence: FQPQPVQPQQGYILPMAQPGLPPV
measured.value: 2.52
--
record.sequence: FQPQNVQPQQGYIPPMAQPGLPPV
measured.value: 2.8
--
record.sequence: FQPQPVQPQQGYIPPMAQPGLPPR
measured.value: 3.38
--
record.sequence: FQPCPVQPQQGYIPPMAQPGLPPV
measured.value: 3.01
--
record.sequence: FQPQPVQPQQKYIPPMAQPGLPPV
measured.value: 2.89
--
record.sequence: FQPQPMQPQQGYIPPMAQPGLPPV
measured.value: 2.71
--
record.sequence: FQPQPVQPQQGYIPPMAQPGLPPH
measured.value: 2.71
--
record.sequence: FQPQPVQPQQGYIPPMAQPGLPPI
measured.value: 3.26
--
record.sequence: FQPQPIQPQQGYIPPMAQPGLPPV
measured.value: 2.96
--
record.sequence: MQPQPVQPQQGYIPPMAQPGLPPV
measured.value: 3.9
--
record.sequence: FQPQPVQPQQGYIIPMAQPGLPPV
measured.value: 2.63
--
record.sequence: FQPQPVQPQQGYIPPMAQPGLPPM
measured.value: 2.8
--
record.sequence: TQPQPVQPQQGYIPPMAQPGLPPV
measured.value: 3.5
--
record.sequence: FQPQPVQPQQGYIPPMAQAGLPPV
measured.value: 3.32
--
record.sequence: FQPQPVQPQQGYIPAMAQPGLPPV
measured.value: 3.13
--
record.sequence: FWPQPVQPQQGYIPPMAQPGLPPV
measured.value: 2.54
--
record.sequence: FQPQCVQPQQGYIPPMAQPGLPPV
measured.value: 2.29
--
record.sequence: FQPQPVQPQQGYIPPSAQPGLPPV
measured.value: 3.5
--
record.sequence: FQPQPVQPQQGYIPPEAQPGLPPV
measured.value: 3.54
--
record.sequence: FQPQPVQPQQCYIPPMAQPGLPPV
measured.value: 2.18
--
record.sequence: FQPQPVQPAQGYIPPMAQPGLPPV
measured.value: 3.35
--
record.sequence: FQQQPVQPQQGYIPPMAQPGLPPV
measured.value: 3.31
--
record.sequence: FDPQPVQPQQGYIPPMAQPGLPPV
measured.value: 4.03
--
record.sequence: FQPQPVQKQQGYIPPMAQPGLPPV
measured.value: 3.15
--
record.sequence: FNPQPVQPQQGYIPPMAQPGLPPV
measured.value: 3.66
--
record.sequence: FQPQYVQPQQGYIPPMAQPGLPPV
measured.value: 2.59
--
record.sequence: FQPQPVRPQQGYIPPMAQPGLPPV
measured.value: 2.83
--
record.sequence: FQPQPVQPQQGYIPPMAQPGLSPV
measured.value: 2.13
--
record.sequence: FQPQPVQPQQGYMPPMAQPGLPPV
measured.value: 2.99
--
record.sequence: FQPQPVQPQHGYIPPMAQPGLPPV
measured.value: 2.62
--
record.sequence: FQPQPVQPQQGYIPPMAQPVLPPV
measured.value: 3.72
--
record.sequence: WQPQPVQPQQGYIPPMAQPGLPPV
measured.value: 3.26
--
record.sequence: FQPQPVQPQQGYIHPMAQPGLPPV
measured.value: 2.75
--
record.sequence: FQPQPVQPQQGYIPQMAQPGLPPV
measured.value: 3.09
--
record.sequence: FQPDPVQPQQGYIPPMAQPGLPPV
measured.value: 3.01
--
record.sequence: FQPQLVQPQQGYIPPMAQPGLPPV
measured.value: 2.88
--
record.sequence: FQPQPVQPQQYYIPPMAQPGLPPV
measured.value: 2.18
--
record.sequence: FQPQPVQPQQGYIPPMAQPLLPPV
measured.value: 3.15
--
record.sequence: FQPQPVQPQQGYIPPMAQGGLPPV
measured.value: 3.12
--
record.sequence: FQPQPDQPQQGYIPPMAQPGLPPV
measured.value: 3.26
--
record.sequence: FQPQPVQPQQGYIPPFAQPGLPPV
measured.value: 2.43
--
record.sequence: FQPQPVQPQQGYIPPMFQPGLPPV
measured.value: 2.5
--
record.sequence: FQPQPVQPQQGSIPPMAQPGLPPV
measured.value: 3.81
--
record.sequence: FQPQPVQPQQGYIPPMAQPGLWPV
measured.value: 1.85
--
record.sequence: FQPQPVQPQQGYGPPMAQPGLPPV
measured.value: 3.29
--
record.sequence: SQPQPVQPQQGYIPPMAQPGLPPV
measured.value: 4.38
--
record.sequence: FQPQWVQPQQGYIPPMAQPGLPPV
measured.value: 1.62
--
record.sequence: FQPQPVQPQQGYIPPMAQPGFPPV
measured.value: 2.66
--
record.sequence: FQPQPVQPQQGYIPPMAKPGLPPV
measured.value: 2.88
--
record.sequence: FQPQPVQPQQGYIPPMANPGLPPV
measured.value: 3.11
--
record.sequence: FQPQPVQPQQGYIAPMAQPGLPPV
measured.value: 2.96
--
record.sequence: FQPQPVQPQQGYIPCMAQPGLPPV
measured.value: 2.45
--
record.sequence: FQPQPVQPQQGYIPPMAQPGLPVV
measured.value: 3.13
--
record.sequence: FQPQPVQPQQGYIPPMAQPQLPPV
measured.value: 3.46
--
record.sequence: FQPQPVQPGQGYIPPMAQPGLPPV
measured.value: 2.74
--
record.sequence: FQPQPVQPQQGYIPPMPQPGLPPV
measured.value: 3.04
--
record.sequence: FQPQPVQPQFGYIPPMAQPGLPPV
measured.value: 2.31
--
record.sequence: FQHQPVQPQQGYIPPMAQPGLPPV
measured.value: 3.8
--
record.sequence: FQPQPVQPQQGYIPPMAQPGLPQV
measured.value: 3.14
--
record.sequence: FQPQPVQPQQGYIPPMAQPGLPMV
measured.value: 2.9
--
record.sequence: FQPQPVQPQQGYIPTMAQPGLPPV
measured.value: 3.14
--
record.sequence: FQPQPVQPQVGYIPPMAQPGLPPV
measured.value: 2.04
--
record.sequence: FQPQPVQPQQGYIPIMAQPGLPPV
measured.value: 2.17
--
record.sequence: FQPQPVQPQQGQIPPMAQPGLPPV
measured.value: 4.03
--
record.sequence: FQPQPVQPQQGYIPPMAQSGLPPV
measured.value: 3.19
--
record.sequence: FQPQPVQPTQGYIPPMAQPGLPPV
measured.value: 3.01
--
record.sequence: DQPQPVQPQQGYIPPMAQPGLPPV
measured.value: 4.47
--
record.sequence: FQRQPVQPQQGYIPPMAQPGLPPV
measured.value: 3.25
--
record.sequence: FQPQPVQNQQGYIPPMAQPGLPPV
measured.value: 3.03
--
record.sequence: FQPQPVQPQEGYIPPMAQPGLPPV
measured.value: 3.1
--
record.sequence: FQMQPVQPQQGYIPPMAQPGLPPV
measured.value: 3.38
--
record.sequence: FQPQPVQPQQGYIPPMAQPGLPPD
measured.value: 3.9
--
record.sequence: FQPQPFQPQQGYIPPMAQPGLPPV
measured.value: 2.19
--
record.sequence: FQPQPVQSQQGYIPPMAQPGLPPV
measured.value: 2.97
--
record.sequence: FQSQPVQPQQGYIPPMAQPGLPPV
measured.value: 3.73
--
record.sequence: FQPQPVQPQQGYIWPMAQPGLPPV
measured.value: 1.98
--
record.sequence: FQPQPVQPQQGAIPPMAQPGLPPV
measured.value: 3.75
--
record.sequence: IQPQPVQPQQGYIPPMAQPGLPPV
measured.value: 3.9
--
record.sequence: FQPQPVQPQQGYHPPMAQPGLPPV
measured.value: 3.54
--
record.sequence: FQPQPVQPQQGYIQPMAQPGLPPV
measured.value: 2.74
--
record.sequence: FQPQPVQPQQGYIPPMAQPGLPPC
measured.value: 2.95
--
record.sequence: FQPQPVQPQQGYIPPMALPGLPPV
measured.value: 2.91
--
record.sequence: FQPQPVQPQQMYIPPMAQPGLPPV
measured.value: 2.66
--
record.sequence: FQPQPVQPQQGYIPPMAQPGEPPV
measured.value: 4.13
--
record.sequence: FQPQPVQPQQGYIPPMAQPGLPSV
measured.value: 3.19
--
record.sequence: FQPQPVQPQQGYIPPMYQPGLPPV
measured.value: 2.25
--
record.sequence: FQKQPVQPQQGYIPPMAQPGLPPV
measured.value: 3.04
--
record.sequence: FQPQPVQPQGGYIPPMAQPGLPPV
measured.value: 3.39
--
record.sequence: FQPVPVQPQQGYIPPMAQPGLPPV
measured.value: 3.12
